# METHOD_SUMMARY: in vivo
# CONDITION_SET: female, Sprague-Dawley, rat
# Description: The samples were centrifuged at approximately 1,500×g (force) for 10 minutes at 2 to 8° C. to remove red blood cells and obtain ˜150 uL plasma. […] For analysis, the samples were thawed on ice and mixed with 2 volumes of acetonitrile/0.5% acetic acid containing 8 ng/mL of camptothecin as internal standard. […] Concentrations were calculated by comparison of peak areas to standard curves of the conjugate (absorbance 380 nm), and SN-38 (fluorescence Ex: 370 nm; Em: 534 nm). […]
ENDPOINT_NAME: half-life (min)
# unit: min | format: bare number

-- ask Would you mind telling me what half-life value was observed for CCc1c2c(nc3ccc(O)cc13)-c1cc3c(c(=O)n1C2)COC(=O)[C@]3(O)CC [SN-38, 7-ethyl-10-hydroxycamptothecin] ?
-- reply 15

Ref: patent US10342792B2
